Target: T1, GPR10 (UniProt P49683 1-370, limits assumed)
T1 sequence (looked up): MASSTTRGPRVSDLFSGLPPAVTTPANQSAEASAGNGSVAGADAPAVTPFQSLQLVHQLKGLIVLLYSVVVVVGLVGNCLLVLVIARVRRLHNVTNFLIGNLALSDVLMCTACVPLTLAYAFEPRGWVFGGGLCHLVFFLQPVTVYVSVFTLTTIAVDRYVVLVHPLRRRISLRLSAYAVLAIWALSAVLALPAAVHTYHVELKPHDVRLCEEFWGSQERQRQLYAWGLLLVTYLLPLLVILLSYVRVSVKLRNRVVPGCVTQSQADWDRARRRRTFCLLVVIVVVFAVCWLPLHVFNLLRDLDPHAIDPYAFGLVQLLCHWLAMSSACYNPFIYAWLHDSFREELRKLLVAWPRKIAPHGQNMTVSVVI
Assay: cell-based or functional assay
Bridges are numbered along the chain shown (N, C = ends). Where no end group is shown, it is not given here. [ ]: non-standard residue; d: D form. hArg = N=C(N)NCCCC[C@H](N)C(=O)O; Nle = CCCC[C@H](N)C(=O)O; L12 = not defined here; L1 = not defined here; L5 = not defined here; L6 = not defined here; L9 = not defined here
GPR10 EC50 10% FBS overview
Write it as a number; the unit nM goes unstated.

Example results:
[[record]]
binder = "SRAHQCS[Nle]ETRTCDINPAWYTG[hArg]GIRPVGRF-NH2 (linker 6-13 via L6; reading uncertain) [Conjugate 270]"
outcomemeasure = "GPR10 EC50 10% FBS"
endpointvalue = 42

[[record]]
binder = "SRAHQCS[Nle]ETRTCDINPAWYTG[hArg]GIRPVGRF-NH2 (linker 6-13 via L9; reading uncertain) [Conjugate 268]"
outcomemeasure = "GPR10 EC50 10% FBS"
endpointvalue = 120

[[record]]
binder = "SRAHQCS[Nle]ETRTCDINPAWYTG[hArg]GIRPVGRF-NH2 (linker 6-13 via L1; reading uncertain) [Conjugate 251]"
outcomemeasure = "GPR10 EC50 10% FBS"
endpointvalue = 10

[[record]]
binder = "SRAHQCS[Nle]ETRTCDINPAWYTG[hArg]GIRPVGRF-NH2 (linker 6-13 via L5; reading uncertain) [Conjugate 263]"
outcomemeasure = "GPR10 EC50 10% FBS"
endpointvalue = 80


Here's the next entry for you.
Requested read-out: GPR10 EC50 10% FBS. Entry: SRAHQCS[Nle]ETRTCDINPAWYTG[hArg]GIRPVGRF-NH2 (linker 6-13 via L12; reading uncertain) [Conjugate 269]
120
